System: Phospholipidosis
Assay: Literature-mined public compounds from Lowe et al phospholipidosis modelling dataset
Measure: Phospholipidosis

Consider the worked cases shown below.
NC[C@H]1O[C@H](O[C@H]2[C@H](O)[C@@H](O[C@H]3O[C@H](CO)[C@@H](O)[C@H](N)[C@H]3O)[C@H](N)C[C@@H]2N)[C@H](N)C[C@@H]1O [TOBRAMYCIN] | Positive
O=C(O)Cc1ccccc1Nc1c(Cl)cccc1Cl [DICLOFENAC] | Negative
CCOC(=O)C(C)(C)Oc1ccc(Cl)cc1 [CLOFIBRATE] | Negative
CCN(CC)CCn1nc2c3c(c(C)ccc31)Sc1cc(Cl)ccc1-2 | Positive
CN(C)[C@@H]1C(O)=C(C(N)=O)C(=O)[C@@]2(O)C(O)=C3C(=O)c4c(O)ccc(Cl)c4[C@@](C)(O)[C@H]3C[C@@H]12 [CHLORTETRACYCLINE] | Negative
CN(C)CCCN1c2ccccc2CCc2ccc(Cl)cc21 [CLOMIPRAMINE] | Positive

Required: Phospholipidosis, one value per compound below.
1. CC(=O)N(O)CCCCCNC(=O)CCC(=O)N(O)CCCCCNC(=O)CCC(=O)N(O)CCCCCN [DEFEROXAMINE]
2. Cc1ccc(C)c(OCCCC(C)(C)C(=O)O)c1 [GEMFIBROZIL]

1: Negative; 2: Negative

Origin of values: ChEMBL document CHEMBL1697681
